Target: LHRH receptor (LHRH binding sites) on EFO-27 human ovarian cancer cells (human)
Assay: competition with [125I-Tyr8]BRU-2477, EFO-27 cells
pEC50: −log10 of the molar value. Non-standard residues stand in square brackets, D forms with d. Bpa = N[C@@H](Cc1ccc(C(=O)c2ccccc2)cc1)C(=O)O; d2Nal = N[C@H](Cc1ccc2ccccc2c1)C(=O)O; DO3A10CM = not defined here; Bpa4 = non-natural residue; Ppt4 = not defined here; azaGly = NNC(=O)O
Reported property: pEC50

(P) XRWSHXWX (Sar at 1; Darg at 6; Bpa4 at 8; Am2prd at 9 carrying DO3A10CM) [BRU-3117]
(Q) DO3A10CM-[d2Nal]RWSH[dR]W[Bpa4][Ppt4][azaGly]-NH2 (reading uncertain) [BRU-2953]
(R) XHWSHXWXPX (Mephe at 1; Darg at 6; Bpa4 at 8; azaGly-NH2 at 10) [BRU-2734]
Put the items in sequence by pEC50, from largest down. Give the order by naming the labels one after another as requested.
R, P, Q

(A) DO3A10CM-[d2Nal]RWSH[dR]W[Bpa]PGQ-NH2 (reading uncertain; also: printed as DO3A10CM-Dnal2-Arg-Trp-Ser-His-Darg-Trp-Bpa4-Pro-Gly-Gln-NH2) [BRU-2971]
(B) XRWSHXWXP (Sar at 1; Darg at 6; Bpa4 at 8; C-terminal Da15o3pt linker carrying DO3A10CM) [BRU-3039]
Which numeric pEC50 is bigger, that of A or that of B ? Give the label under which the chosen entry appears.
B

(1) XRWSHXWXPX (N-terminal DO3A10CM; Thy at 1; Darg at 6; Bpa4 at 8; azaGly-NH2 at 10) [BRU-3069]
(2) GXRWSHXWXPX (N-terminal DO3A10CM; Gly linker before 1; Dtpi at 1; Darg at 6; Bpa4 at 8; azaGly-NH2 at 10) [BRU-3068]
Recorded pEC50 values differ for 1 and 2 ; which one is higher? Pick one and reply with its label.
2
